Cited source for all entries: patent US5250554A

inhibition at 1 µM listing for selected molecules.
Molecular target: A-II receptor (Bos taurus)
Construct: An A-II receptor was prepared from the membrane fraction of bovine adrenal cortex; from tissue; host or cells: bovine adrenal cortex, membrane fraction
Sequence (P25104 1-359): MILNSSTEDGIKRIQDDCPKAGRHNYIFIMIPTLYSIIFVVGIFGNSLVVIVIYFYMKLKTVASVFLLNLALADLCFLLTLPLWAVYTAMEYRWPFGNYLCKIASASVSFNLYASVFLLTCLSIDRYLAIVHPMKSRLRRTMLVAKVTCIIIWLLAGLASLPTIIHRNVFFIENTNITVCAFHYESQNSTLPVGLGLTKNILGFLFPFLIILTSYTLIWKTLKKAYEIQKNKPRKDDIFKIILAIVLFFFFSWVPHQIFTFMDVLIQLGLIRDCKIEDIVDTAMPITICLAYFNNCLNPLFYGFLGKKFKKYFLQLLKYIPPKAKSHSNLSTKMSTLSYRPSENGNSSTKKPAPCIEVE
Assay: Inhibition of binding of angiotensin-II to angiotensin receptor (radioreceptor assay, 125I-A-II)
Set-up: species or system bovine (membrane fraction of bovine adrenal cortex)
Conditions: 1 × 10^-6 M; bovine adrenal cortex membrane; 125I-A-II; 1 h room temperature; read-out: Radioreceptor assay, inhibition of A-II binding, 1 × 10^-6 M
Please state the number and follow it with the unit.

CCCCc1nc2cc(C)cc(C(=O)O)c2n1Cc1ccc(-c2ccccc2-c2nn[nH]n2)cc1 [Working Example 10] : 40%
CCCCc1nc2c(C(N)=O)cccc2n1Cc1ccc(-c2ccccc2-c2nnn[nH]2)cc1 [compound 30, reference compound] : 1%
CCCCc1nc2cccc(C(=O)O)c2n1Cc1ccc(-c2ccccc2-c2nn[nH]n2)cc1 [Working Example 4] : 71%
CCCCc1nc2cccc(C(=O)OCOC(=O)C(C)(C)C)c2n1Cc1ccc(-c2ccccc2-c2nn[nH]n2)cc1 [Working Example 36] : 86%
CSCc1nc2cccc(C(=O)O)c2n1Cc1ccc(-c2ccccc2-c2nnn[nH]2)cc1 [Working Example 51] : 45%
CCCCc1nc2ccc(OC)cc2n1Cc1ccc(-c2ccccc2-c2nn[nH]n2)cc1 [compound 19, reference compound] : 47%
CCCCc1nc2ccc(C(=O)O)cc2n1Cc1ccc(-c2ccccc2-c2nn[nH]n2)cc1 [compound 50, reference compound] : 7%
CCCCc1nc2cccc(C(=O)OCc3oc(=O)oc3C)c2n1Cc1ccc(-c2ccccc2-c2nn[nH]n2)cc1 [Working Example 39] : 83%

// recorded inhibition at 1 µM for CCCCc1nc2ccccc2n1Cc1ccc(-c2ccccc2C(=O)O)cc1 [compound 26, reference compound] : 48%

Lookup result for CC(C)c1nc2cccc(C(=O)O)c2n1Cc1ccc(-c2ccccc2-c2nnn[nH]2)cc1 [Working Example 28] ; measured inhibition at 1 µM: 88%

Value of measured inhibition at 1 µM for the entry CCCc1nc2cccc(C(=O)OC)c2n1Cc1ccc(-c2ccccc2-c2nnn[nH]2)cc1 [Working Example 31] : 78%

inhibition at 1 µM in this record for CCCCc1nc2cc(C(=O)O)ccc2n1Cc1ccc(-c2ccccc2-c2nnn[nH]2)cc1 [compound 44, reference compound] : 13%

Reported inhibition at 1 µM of CCCCc1nc2cccc(CC(=O)OCC)c2n1Cc1ccc(-c2ccccc2-c2nn[nH]n2)cc1 [Working Example 17] : 75%
